These data points were gathered from PubChem BioAssay (NCI).

# MEASUREMENT_PROTOCOL: NCI Yeast Anticancer Drug Screen. Data for the cln2 rad14 strain (AID 165)
# REPORTED_CONDITIONS: S. cerevisiae cln2 rad14 strain, at 50.0 µM (retest, dose inferred, filed as 5.0), stronger effect = higher value
The panel holds about 79,000 compounds, 15% with a hit somewhere; the sample as a whole holds those more often.
Note to self: class = bucket of growth inhibition, per lower level (below 30%), middle level (30% to below 90%), upper level (90% or more)

Query string: Just checking, what class would you give C=C1CC(O)C2C(C[Se]c3ccccc3)C(=O)O[C@@H]2C2C(=C)[C@@H](O)CC12 (stereo not given in full) here?
Result string: lower level

Query string: Cool, now "CCOC(=O)Oc1ccc(C)cc1[N+](=O)[O-]"
Result string: lower level

Query string: Cool, now "Cc1cc2c(cc1C)[n+]([O-])c(-c1c(Cl)cccc1Cl)c(N)[n+]2[O-]"
Result string: middle level

Query string: Cool, now "O=C1c2ccccc2C(=O)c2c(OCCOCCO)cccc21"
Result string: lower level

Query string: Cool, now "CN(C)CCCN1c2ccc3ccccc3c2Sc2cccc(Cl)c21"
Result string: upper level

Query string: Cool, now "CCOc1ccc2c(c1)[n+]([O-])c(-c1ccccc1)c(N)[n+]2[O-]"
Result string: upper level

Query string: Cool, now CCCC(C(=O)OCCNC1CCCCC1)c1ccccc1 (stereo not given)
Result string: middle level

Query string: Cool, now "C=[CH][Sn]([CH]=C)([S]c1cccc2cccnc12)[S]c1cccc2cccnc12"
Result string: upper level

Query string: Cool, now "c1ccc(OCCN2CCN(CCOc3ccccc3)CC2)cc1"
Result string: middle level

Query string: Cool, now "N#Cc1cccc(C[P+](c2ccccc2)(c2ccccc2)c2ccccc2)c1"
Result string: lower level

Query string: Cool, now CCCCN(CCCC)CC(O)c1cc(-c2ccc(Cl)cc2)nc2c(-c3ccccc3)cccc12 (stereo not given)
Result string: lower level

Query string: Cool, now "Nc1ccc(/C=C2/c3ccccc3-c3nc4ccccc4cc32)cc1"
Result string: middle level

Query string: Cool, now "CCCCNc1cccc2ncccc12"
Result string: lower level

Query string: Cool, now "O=C(CC(=O)c1ccccc1)CC(=O)c1ccccc1"
Result string: middle level

Query string: Cool, now Oc1cc2c(cc1C(c1ccc(Cl)cc1)N1CCOCC1)OCO2 (stereo not given)
Result string: middle level

Query string: Cool, now N#CC(C(=O)C(=O)Nc1ccc(Cl)cc1)c1c(Cl)cccc1Cl (stereo not given)
Result string: lower level

Query string: Cool, now O=C(CC(c1cccnc1)C(C(=O)c1ccc(Cl)cc1)C(CC(=O)c1ccc(Cl)cc1)c1cccnc1)c1ccc(Cl)cc1 (stereo not given)
Result string: upper level

Query string: Cool, now "CCOP(=O)(OCC)/C(C#N)=C/c1ccc(C(F)(F)F)cc1"
Result string: upper level

Query string: Cool, now Cc1cccc2c1NC(c1c(C)[nH]c3ccccc13)C2 (stereo not given)
Result string: lower level

Query string: Cool, now C=CC1(C)CCC2C(=CCC3C(C)(COC4OC(CO)C(O)C(O)C4O)C(O)CCC23C)C1 (stereo not given)
Result string: middle level

Query string: Cool, now "OCC(c1ccccc1)c1ccccc1"
Result string: lower level

Query string: Cool, now CCCC(CC)c1c(O)c(O)c(C(CC)CCC)c(C(CC)CCC)c1C(CC)CCC (stereo not given)
Result string: middle level

Query string: Cool, now "Cc1cccc(/C=N/Nc2ccccn2)n1"
Result string: middle level

Query string: Cool, now "CCCCCCCCCCCCCCCCOS(=O)(=O)O"
Result string: upper level

Query string: Cool, now "CC(C)(C)CC(=O)O"
Result string: lower level

Query string: Cool, now "N=C(N)c1ccc(/C=C/c2ccc(C(=N)N)cc2)cc1"
Result string: middle level

Query string: Cool, now "CCCCCCCCCCCCCCCCN1CCSCC1"
Result string: upper level

Query string: Cool, now "O=C(O)CCC(c1ccccc1)(c1ccccc1)c1ccccc1"
Result string: upper level

Query string: Cool, now "CCCCCCCCCCCCCCCCCc1nnc(N)o1"
Result string: middle level

Query string: Cool, now COc1ccc(C(=O)C2OC2c2ccccc2)cc1 (stereo not given)
Result string: lower level

Query string: Cool, now CCCCN(CCCC)CC(O)Cc1cc2ccccc2c2ccccc12 (stereo not given)
Result string: middle level

Query string: Cool, now "O=[N+]([O-])c1ccc(/C=N/O)o1"
Result string: upper level

Query string: Cool, now "O=[N+]([O-])c1ccc(/C=C/[n+]2ccc3ccccc3c2)o1"
Result string: upper level

Query string: Cool, now "O=C(Nc1ccc(NC(=O)Nc2cc(C(=O)Nc3ccc(C4=NCCN4)cc3)ccc2C(=O)Nc2ccc(C3=NCCN3)cc2)cc1)Nc1cc(C(=O)Nc2ccc(C3=NCCN3)cc2)ccc1C(=O)Nc1ccc(C2=NCCN2)cc1"
Result string: lower level

Query string: Cool, now "Cc1cc(C)c([O-])c(-[n+]2c(-c3ccccc3)cc(-c3ccccc3)cc2-c2ccccc2)c1"
Result string: lower level

Query string: Cool, now CCCCCCCCN(CCCCCCCC)CC(O)c1cc(-c2ccc(OC)cc2)nc2cc(Cl)ccc12 (stereo not given)
Result string: middle level

Query string: Cool, now CCC1(CC(=O)O)OCCc2c1[nH]c1c(C)c(Cl)ccc21 (stereo not given)
Result string: upper level

Query string: Cool, now "CN(/N=C/c1ccc([N+](=O)[O-])o1)C(N)=O"
Result string: lower level

Query string: Cool, now "O=c1c(Cl)cc2nc3ccccc3sc-2c1Cl"
Result string: middle level

Query string: Cool, now "Cc1ccc(C(=O)CCCN2CCOCC2)c(C)c1"
Result string: middle level

Query string: Cool, now CC(c1ccccc1)c1cc(C(C)(C)C)ccc1O (stereo not given)
Result string: upper level

Query string: Cool, now OC1c2cccn2-c2cc(Cl)ccc2SC1c1ccccc1 (stereo not given)
Result string: upper level

Query string: Cool, now "COC(=O)/C=C(\C)Nc1ccc(Cc2ccc(Br)cc2)cc1"
Result string: upper level
